This collection of values is drawn from PubChem BioAssay.

- assaySummary: kinase inhibitors against Plasmodium liver-stage infection, cell-based, known kinase inhibitor set, luminescence, hepatoma host viability (AID 624392);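 also: infected cells incubated roughly two days before readout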
- measurementConditions: Plasmodium liver stage in hepatoma cells, luciferase luminescence, concentration not given here; stronger effect = lower value
parasite % of control vs 60%: less than gives Met; not less than gives Not met.

Exercise: Field: below-cutoff. Rule: recorded parasite % of control strictly less than 60%. Subject: "Cn1cc(C2=C(c3cn(CCCO)c4ccccc34)C(=O)NC2=O)c2ccccc21"
Key: Met

Exercise: Field: below-cutoff. Rule: recorded parasite % of control strictly less than 60%. Subject: "COc1cc2c(cc1Nc1nc(Nc3cccc(F)c3C(N)=O)c3cc[nH]c3n1)N(C(=O)CN1CCN(C(C)C)CC1)CC2"
Key: Not met

Exercise: Field: below-cutoff. Rule: recorded parasite % of control strictly less than 60%. Subject: "COc1cc2ncn(-c3cc(O[C@H](C)c4ccccc4Cl)c(C(N)=O)s3)c2cc1OC"
Key: Met

###

- assaySummary: stimulators of nuclear beta-catenin in C2C12, primary screen, imaging, WNT3A-conditioned medium, mouse C2C12, NPC library (AID 1117326)
- measurementConditions: at 10 µM, stronger effect = higher value
Non-standard residues stand in square brackets, D forms with d. Residues, ends and D or L forms follow the SMILES beside them. pGlu = O=C1CC[C@@H](C(=O)O)N1
Field: nuclear beta-catenin stimulation. Provide a value for each of the compounds that follow.
Unit % implied. Number only.

Exercise: So what's the measured nuclear beta-catenin stimulation for this one? "CN(C)c1ccc(C(=C2C=CC(=[N+](C)C)C=C2)c2ccccc2)cc1"
Key: 4.5

Exercise: So what's the measured nuclear beta-catenin stimulation for this one? O=C(CCN1CCN2CCCC2C1)N1c2ccccc2Sc2ccc(Cl)cc21 (centres undefined)
Key: 1.1

Exercise: So what's the measured nuclear beta-catenin stimulation for this one? "O=C(CCN1CCN(CCO)CC1)N1c2ccccc2Sc2ccc(C(F)(F)F)cc21"
Key: 2.5

Exercise: So what's the measured nuclear beta-catenin stimulation for this one? CCNC(=O)[C@@H]1CCCN1C(=O)[C@H](CCCN=C(N)N)NC(=O)[C@H](CC(C)C)NC(=O)CNC(=O)[C@H](Cc1ccc(O)cc1)NC(=O)[C@H](CO)NC(=O)[C@H](Cc1c[nH]c2ccccc12)NC(=O)[C@H](Cc1cnc[nH]1)NC(=O)[C@@H]1CCC(=O)N1 ([pGlu]HWSYGLRP-NHEt)
Key: 0.5

Exercise: So what's the measured nuclear beta-catenin stimulation for this one? "O[C@@H]1CO[C@H]2[C@@H]1OC[C@@H]2O"
Key: 1

Exercise: So what's the measured nuclear beta-catenin stimulation for this one? CCN(CC)CCOc1ccc(C(O)(Cc2ccc(Cl)cc2)c2ccc(C)cc2)cc1 (centres undefined)
Key: 8.8

Exercise: So what's the measured nuclear beta-catenin stimulation for this one? "O=C1CC2(CCCC2)CC(=O)N1"
Key: -0.8

Exercise: So what's the measured nuclear beta-catenin stimulation for this one? "CCCCCCCCCCCCCCCCCCN(C)C"
Key: -0.6

Exercise: So what's the measured nuclear beta-catenin stimulation for this one? "O=C(O)[C@@H]1CSCN1"
Key: 0

###

Field: nuclear beta-catenin stimulation. Provide a value for each of the compounds that follow.
- assaySummary: stimulators of nuclear beta-catenin in C2C12, primary screen, imaging, WNT3A-conditioned medium, mouse C2C12, NPC library (AID 1117326)
- measurementConditions: at 10 µM, stronger effect = higher value
Unit % implied. Number only.

Exercise: So what's the measured nuclear beta-catenin stimulation for this one? "CCCc1cc(=O)[nH]c(=S)[nH]1"
Key: 0.6

Exercise: So what's the measured nuclear beta-catenin stimulation for this one? "O=C(/C=C/c1ccccc1)OCc1ccccc1"
Key: 1.3

Exercise: So what's the measured nuclear beta-catenin stimulation for this one? CCC(C(=O)OCCN(CC)CC)c1ccccc1 (centres undefined)
Key: 1.2

Exercise: So what's the measured nuclear beta-catenin stimulation for this one? CC(C)(Cc1c[nH]c2ccccc12)NCC(O)COc1ccccc1C#N (centres undefined)
Key: 0.2

Exercise: So what's the measured nuclear beta-catenin stimulation for this one? "C/C=C/C=N/NC(=O)c1ccncc1"
Key: 0.2

Exercise: So what's the measured nuclear beta-catenin stimulation for this one? CC(C)NCC(O)c1ccc(O)c(O)c1 (centres undefined)
Key: -0.3

Exercise: So what's the measured nuclear beta-catenin stimulation for this one? CC1(C)S[C@@H]2[C@H](NC(=O)C(C(=O)Oc3ccc4c(c3)CCC4)c3ccccc3)C(=O)N2[C@H]1C(=O)O (some centres undefined)
Key: 1

Exercise: So what's the measured nuclear beta-catenin stimulation for this one? "Cc1cc(NS(=O)(=O)c2ccc(N)cc2)nc(C)n1"
Key: 0.1

Exercise: So what's the measured nuclear beta-catenin stimulation for this one? "CS(=O)(=O)OCCCCOS(C)(=O)=O"
Key: 1.2

Exercise: So what's the measured nuclear beta-catenin stimulation for this one? "CC(C)NC(=O)c1ccc(C=O)cc1"
Key: 0

Exercise: So what's the measured nuclear beta-catenin stimulation for this one? "CC(=O)OC[C@H]1O[C@@](COC(C)=O)(O[C@H]2O[C@H](COC(C)=O)[C@@H](OC(C)=O)[C@H](OC(C)=O)[C@H]2OC(C)=O)[C@@H](OC(C)=O)[C@@H]1OC(C)=O"
Key: 0.3

Exercise: So what's the measured nuclear beta-catenin stimulation for this one? "CC(=O)S[C@@H]1CC2=CC(=O)CC[C@]2(C)[C@H]2CC[C@@]3(C)[C@@H](CC[C@@]34CCC(=O)O4)[C@H]12"
Key: 4.4

Exercise: So what's the measured nuclear beta-catenin stimulation for this one? "CCCCCCCCCCCCCCCC(=O)OC(C)C"
Key: 0.6

Exercise: So what's the measured nuclear beta-catenin stimulation for this one? "Nc1ncnc2c1ncn2Cc1c(F)cccc1Cl"
Key: -0.7

Exercise: So what's the measured nuclear beta-catenin stimulation for this one? "O=C(O)[C@@H]1CCCN1"
Key: 0.9

Exercise: So what's the measured nuclear beta-catenin stimulation for this one? "CC(C)CCC[C@@H](C)[C@H]1CC[C@H]2[C@@H]3CC[C@H]4C[C@@H](O)CC[C@]4(C)[C@@H]3CC[C@]12C"
Key: 0

Exercise: So what's the measured nuclear beta-catenin stimulation for this one? "Nc1ccc(O)cc1"
Key: 18.2

Exercise: So what's the measured nuclear beta-catenin stimulation for this one? "COC(=O)c1cc(Cl)ccc1NS(=O)(=O)C(F)(F)F"
Key: -1.2

Exercise: So what's the measured nuclear beta-catenin stimulation for this one? "Cc1cccc(C)c1NC(=O)CN(CC(=O)O)CC(=O)O"
Key: 0.4

Exercise: So what's the measured nuclear beta-catenin stimulation for this one? CC(=O)O[C@@H]1CC2C3CCc4cc(OC(=O)c5ccccc5)ccc4C3CCC2(C)[C@H]1OC(C)=O (some centres undefined)
Key: 0.7

Exercise: So what's the measured nuclear beta-catenin stimulation for this one? "Cc1ncc(COP(=O)(O)O)c(C=O)c1O"
Key: -1.1

Exercise: So what's the measured nuclear beta-catenin stimulation for this one? "CCCCCCCCCCCCSCCOCCO"
Key: 0.7

Exercise: So what's the measured nuclear beta-catenin stimulation for this one? "N#C/C(=C1/SC[C@@H](c2ccc(Cl)cc2Cl)S1)n1ccnc1"
Key: 0.7

Exercise: So what's the measured nuclear beta-catenin stimulation for this one? CC(CN1c2ccccc2Sc2ccccc21)N(C)C (centres undefined)
Key: 0
